- Tested on: CoV-2 in Vero cells
- test protocol: CoV-2 Vero antiviral assay
- Type: cell-based, SARS-CoV-2
- condition details: Severe acute respiratory syndrome coronavirus 2, Vero, read-out: CoV-2 Vero EC50/100
Measured EC50, listed per entry.
Answer in µg/mL, number only, no unit symbol.

Please review the following examples before continuing.
| molecule | output unit | EC50 |
| --- | --- | --- |
| Cc1cncc(C(=O)N2CCC(=C3c4ccccc4CCc4ccccc43)CC2)c1 | µg/mL | 2.5 |
| Cc1cncc(C(=O)N2CCC(=C3c4ccccc4CSc4ccccc43)CC2)c1 | µg/mL | 2.5 |
| O=C(c1cncc(Br)c1)N1CCN(C2c3ccccc3CCc3ccccc32)CC1 | µg/mL | 2.5 |
| Cc1cncc(C(=O)N2CCN(C3c4ccccc4NC(=O)c4ccccc43)CC2)c1 (centres unmarked) | µg/mL | 20 |

# input for lookup
Recall the reported EC50 of Cc1cncc(C(=O)N2CCC(C(O)(c3ccccc3)c3ccccc3)CC2)c1 when tested on CoV-2 in Vero cells.
5

The reported numbers originate from patent US20250084091A1.
